Target Under Test: chemokine receptors on THP-1 cells
Test Name: cell-based or functional assay
Ends that are not written are not given here.
Measurement Label: ED50 for inhibition of THP-1 migration versus MIP1α (µM)

Sample answers from the record:
Binder: CADPKQKWVQ (also called Pep3[3-12]; Pep3(3-12)[MCP-1]) [peptide 3(3-12)[MCP-1]]
Assay Value: 7
--
Binder: EICADP [peptide 3(1-6)[MCP-1]]
Assay Value: 25
--
Binder: EICADPSQKWVQ (Mutant of peptide 3; also called Ser7pep3) [Ser7peptide 3(1-12)[MCP-1]]
Assay Value: 6
--
Binder: EICADPSEEWVQ (not fully specified, also called Ser7Glu8Glu9pep3) [Ser7Glu8Glu9peptide 3(1-12)[MCP-1]]
Assay Value: 2
--
Binder: KQKWVQ (also called Pep3[7-12]; KQKWVQ) [peptide 3(7-12)[MCP-1]]
Assay Value: 5
--
Binder: EICLDPKQKWVQ [Leu4peptide 3(1-12)[MCP-1]]
Assay Value: 7
--
Binder: EICLDPKQKWIQ (also called Leu4Ile11pep3; Leu4Ile11peptide 3[MCP-1]) [Leu4Ile11peptide 3(1-12)[MCP-1]]
Assay Value: 1

P. SEE
Q. EICADPKQKWIQ [Ile11peptide 3(1-12)[MCP-1]]
(Q) Lab note: record which item had the higher ED50 for inhibition of THP-1 migration versus MIP1α, P or Q . # reply format: chosen label
(A) P
(P: 6 µM, Q: 4 µM)
